A collection of compounds and their measured Bacterial count
# System: K. pneumoniae ATCC 700603 strain producing SHV 18 ESBL
# PROTOCOL DETAILS: Cidal activity (bacterial count over time)
# Assay type: cell-based
# CONDITION NOTES: Table 4; 2 hours; initial count 7.43 log CFU/ml; concentrations in label
Numbers only here, please. The scale is Log CFU/ml.

Completed entries (count: 3):
1) C=CC1=C(C(=O)O)N2C(=O)[C@@H](NC(=O)/C(=N\OCC(=O)O)c3csc(N)n3)[C@H]2SC1 [Cefixime (2 mcg/ml), cefixime]; 8.11
2) C[C@@H](O)[C@H]1C(=O)N2C(C(=O)O)=C(SCCN=CN)C[C@H]12 [Imipenem, imipenem]; 4.87
3) O=C(O)[C@H]1/C(=C/CO)O[C@@H]2CC(=O)N21 [Clavulanic acid, clavulanic acid]; 8.4

Kindly consider the entry below.
Task item: Test system K. pneumoniae ATCC 700603 strain producing SHV 18 ESBL; read-out Bacterial count; what value for CC1(C)S[C@@H]2[C@H](/N=C/N3CCCCCC3)C(=O)N2[C@H]1C(=O)O [Mecillinam, mecillinam] ?
Reply: 7.95
